- Measured target: HIV Env of isolate P0402_C2_11 (clade G) (HIV)
- Protocol summary: cell-based or functional assay
Reported property: IC50 (µg/ml) with constrains (µg/mL)
Give bare numbers, in µg/mL.

ePGDM5 (antibody, V domains shown) VH: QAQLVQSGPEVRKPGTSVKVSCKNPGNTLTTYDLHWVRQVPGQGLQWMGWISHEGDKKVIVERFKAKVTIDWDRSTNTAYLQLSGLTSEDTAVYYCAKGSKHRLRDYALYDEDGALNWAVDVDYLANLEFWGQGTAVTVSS VL: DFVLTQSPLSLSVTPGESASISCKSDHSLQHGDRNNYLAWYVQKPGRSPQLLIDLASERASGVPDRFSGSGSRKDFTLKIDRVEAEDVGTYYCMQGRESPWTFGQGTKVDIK; 0.004
ePGDM13 (antibody, V domains shown) VH: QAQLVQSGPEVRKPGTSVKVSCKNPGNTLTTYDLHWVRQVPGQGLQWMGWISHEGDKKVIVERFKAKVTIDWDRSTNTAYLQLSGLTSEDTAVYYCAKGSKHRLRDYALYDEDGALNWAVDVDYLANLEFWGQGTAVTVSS VL: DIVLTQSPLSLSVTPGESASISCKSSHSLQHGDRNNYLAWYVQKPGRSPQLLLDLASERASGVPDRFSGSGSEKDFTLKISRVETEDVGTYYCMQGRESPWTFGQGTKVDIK; 0.001
ePGDM9 (antibody, V domains shown) VH: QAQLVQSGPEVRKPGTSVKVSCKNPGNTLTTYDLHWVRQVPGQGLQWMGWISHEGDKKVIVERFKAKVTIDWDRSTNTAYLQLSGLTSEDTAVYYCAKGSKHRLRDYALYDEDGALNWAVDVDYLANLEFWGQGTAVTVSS VL: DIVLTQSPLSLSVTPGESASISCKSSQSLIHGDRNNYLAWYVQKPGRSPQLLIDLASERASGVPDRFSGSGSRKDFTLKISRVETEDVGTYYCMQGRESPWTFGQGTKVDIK; 0.001

Please find the next binder below.
Field request: IC50 (µg/ml) with constrains | item: PGDM1400 (antibody, V domains shown) VH: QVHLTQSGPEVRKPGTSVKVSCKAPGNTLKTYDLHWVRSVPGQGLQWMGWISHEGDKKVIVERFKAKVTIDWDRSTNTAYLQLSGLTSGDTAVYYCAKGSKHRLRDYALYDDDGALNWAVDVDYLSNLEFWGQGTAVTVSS VL: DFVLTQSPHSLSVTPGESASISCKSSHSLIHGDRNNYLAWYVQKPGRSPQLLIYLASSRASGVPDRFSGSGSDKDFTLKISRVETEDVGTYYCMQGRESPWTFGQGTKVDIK
0.007

The origin of these recorded values is patent US20230134571A1.
